Reference source: patent US11091451B2

Recorded pIC50 values for a group of molecules are listed next.
Target: Human mitochondrial SHMT2 (Homo sapiens (Human))
Sequence (P34897 30-504): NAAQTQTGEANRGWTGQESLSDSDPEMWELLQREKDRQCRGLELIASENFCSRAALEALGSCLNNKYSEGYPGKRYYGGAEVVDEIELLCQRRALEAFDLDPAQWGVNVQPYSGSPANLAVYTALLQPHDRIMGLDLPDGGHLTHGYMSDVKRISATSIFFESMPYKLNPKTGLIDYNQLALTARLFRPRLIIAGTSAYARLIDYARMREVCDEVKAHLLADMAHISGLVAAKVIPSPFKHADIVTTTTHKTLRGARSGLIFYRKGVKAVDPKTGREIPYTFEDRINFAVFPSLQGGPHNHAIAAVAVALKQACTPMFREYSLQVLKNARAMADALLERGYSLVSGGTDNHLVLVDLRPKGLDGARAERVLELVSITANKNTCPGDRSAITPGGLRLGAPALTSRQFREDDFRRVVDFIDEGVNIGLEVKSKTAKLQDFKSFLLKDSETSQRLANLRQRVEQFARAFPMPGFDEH
Assay: SHMT2 activity inhibition assay (serine production from glycine and CH2-THF, mass spectroscopy)
Type: biochemical
Details: 60 minutes at room temperature
pIC50: −log10 of the molar value.

For orientation, consider the following solved cases.
{"smiles_notation": "CC(C)(NC(=O)Cc1csc(-c2ccc(Cl)cc2-c2cccc(C#N)c2)n1)C(=O)O", "pIC50": "> 6.00"}
{"smiles_notation": "O=C(O)CNC(=O)Cc1cccc(-c2ccc(Cl)cc2Cl)c1", "pIC50": "4.00 to 5.00"}
{"smiles_notation": "CC(C)(NC(=O)Cc1csc(-c2ccc(Cl)cc2-c2cccc(Cl)c2)n1)C(=O)O", "pIC50": "> 6.00"}

API: the following record is the query input.
Problem: Value wanted: pIC50 (Human mitochondrial SHMT2 (Homo sapiens (Human))) of entry Cc1cccc(-c2cc(Cl)ccc2-c2nc(CC(=O)NC(C)(C)C(=O)O)cs2)c1
Solution: > 6.00

* * *

Biological target: Human mitochondrial SHMT2 (Homo sapiens (Human))
Assay: SHMT2 activity inhibition assay (serine production from glycine and CH2-THF, mass spectroscopy)
Conditions: 60 minutes at room temperature
Recorded IC50 values for a group of compounds are listed next.

For orientation, consider the following solved cases.
{"compound": "CC(C)(NC(=O)Cc1csc(-c2ccc(Cl)cc2-c2cccc3c2CCC3)n1)C(=O)O", "experimental_value": "< 1 µM"}
{"compound": "CC(C)(NC(=O)Cc1cncc(-c2ccc(Cl)cc2-c2ccccc2)c1)C(=O)O", "experimental_value": "< 1 µM"}

Problem: Can you share its IC50? I mean this compound: O=C(O)CNC(=O)Cc1csc(-c2ccc3c(c2)OCCO3)n1
Solution: 100 to 500 µM

Problem: CC(C)(NC(=O)Cc1csc(-c2ccc(Cl)cc2C2CCNCC2)n1)C(=O)O ?
Solution: 1 to 10 µM

Problem: CC(C)Cc1cc(Cl)ccc1-c1nc(CC(=O)NC(C)(C)C(=O)O)cs1 ?
Solution: < 1 µM

Problem: O=C(O)CNC(=O)Cc1csc(-c2ccc(Cl)cc2-c2ccccc2)n1 ?
Solution: 10 to 100 µM

Problem: C[C@H](NC(=O)Cc1csc(-c2ccccc2F)n1)C(=O)O ?
Solution: 100 to 500 µM

Problem: O=C(Cc1csc(-c2ccc(Cl)cc2Cl)n1)NC1(C(=O)O)CCC1 ?
Solution: 1 to 10 µM

Problem: O=C(O)CNC(=O)Cc1csc(-c2ccc(Cl)cc2CCO)n1 ?
Solution: 100 to 500 µM

Problem: CC(C)(NC(=O)Cc1csc(-c2ccc(Cl)cc2C2CCOCC2)n1)C(=O)O ?
Solution: < 1 µM

Problem: CC[C@@H](C)[C@H](NC(=O)Cc1csc(-c2ccc(Cl)cc2Cl)n1)C(=O)O ?
Solution: 100 to 500 µM

Problem: Cc1sc(-c2ccc(Cl)cc2Cl)nc1CC(=O)NC(C)(C)C(=O)O ?
Solution: 1 to 10 µM

Problem: Cc1ccc(-c2cc(Cl)ccc2-c2cccc(CC(=O)NC(C)(C)C(=O)O)c2)cc1 ?
Solution: < 1 µM

Problem: CC(C)(NC(=O)Cc1cccc(-c2ccc(Cl)cc2-c2ccccc2)n1)C(=O)O ?
Solution: < 1 µM

Problem: O=C(O)CNC(=O)Cc1csc(-c2ccc(Cl)c(-c3ccccc3)c2)n1 ?
Solution: 10 to 100 µM

Problem: CC(C(=O)NCC(=O)O)c1csc(-c2ccc(Cl)cc2Cl)n1 (stereo not shown) ?
Solution: 10 to 100 µM
